# Measurement notes: Cytotoxicity assay (CellTiter-Glo, 72 h), Jurkat
# Format: cell-based
# Measurement context: human, Jurkat cells (T lymphoma), 72 h, read-out: Plateau level of cell viability in the dose-response curve
Metric name: viability at 72 h

Input: Sample CO[C@H]1C[C@@H]2CC[C@@H](C)[C@@](O)(O2)C(=O)C(=O)N2CCCC[C@H]2C(=O)O[C@H]([C@H](C)C[C@@H]2CC[C@@H](O)[C@H](OC)C2)CC(=O)[C@H](C)/C=C(\C)[C@@H](O)[C@@H](OC)C(=O)[C@H](C)C[C@H](C)/C=C/C=C/C=C/1C [Compound 1, rapamycin, reference compound] — what was its viability at 72 h?
Output: ~25%

Input: Sample COC1CC2CCC(C)C(O)(O2)C(=O)C(=O)N2CCCCC2C(=O)OC(C(C)CC2CCC(O)C(OC)C2)CCC(C)C=C(C)C(O)C(OC)C(=O)C(C)CC(C)C=CC=CC=C1C (centres unmarked) [Compound 16, 32-desketorapamycin] — what was its viability at 72 h?
Output: ~25%

----------
# Measurement notes: Cytotoxicity assay (CellTiter-Glo, 72 h), Jurkat
# Type: cell-based
# Measurement context: human, Jurkat cells (T lymphoma), conc 50 uM, raw data (replicates)
Metric name: viability at 72 h, 50 uM (%)
Quick reminder: number only, in %, skip the unit.

{"Compound": "CO[C@@H]1C[C@H](C[C@@H](C)[C@@H]2CC(=O)[C@H](C)/C=C(\\C)[C@@H](O)[C@@H](OC)C(=O)[C@H](C)C[C@H](C)/C=C/C=C/C=C(\\C)[C@H](O)C[C@@H]3CC[C@@H](C)[C@@](O)(O3)C(=O)C(=O)N3CCCC[C@H]3C(=O)O2)CC[C@H]1O [Compound 17, (16R)-16-O-demethyl rapamycin]", "Unit info": "%", "viability at 72 h, 50 uM": 21.6}
{"Compound": "COC1CC2CCC(C)C(O)(O2)C(=O)C(=O)N2CCCCC2C(=O)OC(C(C)CC2CCC(O)C(OC)C2)CC(O)CC(=O)C(C)C=C(C)C(O)CC(=O)C(C)CC(C)C=CC=CC=C1C (stereo not shown) [Compound 13]", "Unit info": "%", "viability at 72 h, 50 uM": 2.2}
{"Compound": "COC1CC2CCC(C)C(O)(O2)C(=O)C(=O)N2CCCCC2C(=O)OC(C(C)CC2CCC(O)C(OC)C2)CCC(C)C=C(C)C(O)C(OC)C(=O)C(C)CC(C)C=CC=CC=C1C (stereo not shown) [Compound 16, 32-desketorapamycin]", "Unit info": "%", "viability at 72 h, 50 uM": 0.248}

Now for another entry.
Input: Sample CO[C@@H]1/C=C/C=C/[C@@H](C)C[C@@H](C)C(=O)C[C@H](O)/C(C)=C/[C@@H](C)C(=O)C[C@@H]([C@H](C)C[C@@H]2CC[C@@H](O)[C@H](OC)C2)OC(=O)[C@@H]2CCCCN2C(=O)C(=O)[C@]2(O)O[C@@H](CC[C@H]2C)C1 [Compound 9] — what was its viability at 72 h, 50 uM?
Output: 18.3

----------
# Measurement notes: Cytotoxicity assay (CellTiter-Glo, 72 h), MESO-1
# Type: cell-based
# Measurement context: human, MESO-1 malignant pleural mesothelioma cells, conc 1.5625 uM; raw replicate data; read-out: MESO1 viability (%)
# Method: Jurkat cells were cultured in RPMI1640 medium supplemented with 10% foetal bovine serum, penicillin (50 U/ml), streptomycin (50 μg/ml), and Glutamax. SKOV-3 cells were cultured in DMEM medium supplemented with 10% fetal bovine serum, penicillin (50 U/ml), and streptomycin (50 μg/ml). […] Cell viabilities were measured using a CellTiter-Glo luminescent cell viability assay and EnVision multilabel plate reader.
viability at 72 h, 1.5625 uM overview

Here is how some molecules turned out for viability at 72 h, 1.5625 uM.
{"Molecule": "COC1CC2CCC(C)C(O)(O2)C(=O)C(=O)N2CCCCC2C(=O)OC(C(C)CC2CCC(O)C(OC)C2)CCC(C)C=C(C)C(O)C(OC)C(=O)C(C)CC(C)C=CC=CC=C1C (stereo not shown) [Compound 16, 32-desketorapamycin]", "Test result": "73.1%"}
{"Molecule": "CO[C@H]1C[C@@H]2CC[C@@H](C)[C@@](O)(O2)C(=O)C(=O)N2CCCC[C@H]2C(=O)O[C@H]([C@H](C)C[C@@H]2CC[C@@H](O)[C@H](OC)C2)CC(=O)[C@H](C)/C=C(\\C)[C@@H](O)CC(=O)[C@H](C)C[C@H](C)/C=C/C=C(C)/C=C/1C [Compound 2, 27-demethoxy-19-methyl rapamycin]", "Test result": "99.9%"}
{"Molecule": "CO[C@@H]1/C=C/C=C/[C@@H](C)C[C@@H](C)C(=O)C[C@H](O)/C(C)=C/[C@@H](C)C(=O)C[C@@H]([C@H](C)C[C@@H]2CC[C@@H](O)[C@H](OC)C2)OC(=O)[C@@H]2CCCCN2C(=O)C(=O)[C@]2(O)O[C@@H](CC[C@H]2C)C1 [Compound 9]", "Test result": "71.8%"}

Input: Sample CO[C@@H]1C[C@H](C[C@@H](C)[C@@H]2CC(=O)[C@H](C)/C=C(\C)[C@@H](O)[C@@H](OC)C(=O)[C@H](C)C[C@H](C)/C=C/C=C/C=C(\C)[C@H](O)C[C@@H]3CC[C@@H](C)[C@@](O)(O3)C(=O)C(=O)N3CCCC[C@H]3C(=O)O2)CC[C@H]1O [Compound 17, (16R)-16-O-demethyl rapamycin] — what was its viability at 72 h, 1.5625 uM?
Output: 71.7%

----------
# Measurement notes: Cytotoxicity assay (CellTiter-Glo, 72 h), MESO-1
# Format: cell-based
# Measurement context: human, MESO-1 malignant pleural mesothelioma cells, conc 6.25 uM; raw replicate data; read-out: MESO1 viability (%)
Sorting guide: entries reporting viability at 72 h, 6.25 uM beneath 70% go in the YES pile, the rest go in the NO pile.

{"Compound": "COC1CC2CCC(C)C(O)(O2)C(=O)C(=O)N2CCCCC2C(=O)OC(C(C)CC2CCC(O)C(OC)C2)CC(=O)C(C)C=C(C)C(O)CC(=O)C(C)C=C(C)C=CC=CC=C1C (stereo not drawn)", "Label value": "NO"}

Input: Consider "CO[C@H]1C[C@@H]2CC[C@@H](C)[C@@](O)(O2)C(=O)C(=O)N2CCCC[C@H]2C(=O)O[C@H]([C@H](C)C[C@@H]2CC[C@@H](O)[C@H](OC)C2)CC(=O)[C@H](C)/C=C(\C)[C@@H](O)CC[C@H](C)/C=C/C=C/C=C/1C" . Does its viability at 72 h, 6.25 uM lie strictly below 70%?
Output: YES

Input: Consider CO[C@@H]1C[C@H](C[C@@H](C)[C@@H]2CC(=O)[C@H](C)/C=C(\C)[C@@H](O)[C@@H](OC)C(=O)[C@H](C)C[C@H](C)/C=C/C=C/C=C(\C)[C@H](O)C[C@@H]3CC[C@@H](C)[C@@](O)(O3)C(=O)C(=O)N3CCCC[C@H]3C(=O)O2)CC[C@H]1O [Compound 17, (16R)-16-O-demethyl rapamycin] . Does its viability at 72 h, 6.25 uM lie strictly below 70%?
Output: NO

Input: Consider "CO[C@H]1C[C@@H]2CC[C@@H](C)[C@@](O)(O2)C(=O)C(=O)N2CCCC[C@H]2C(=O)O[C@H]([C@H](C)C[C@@H]2CC[C@@H](O)[C@H](OC)C2)CC(=O)[C@H](C)/C=C(\C)[C@@H](O)CC(=O)[C@H](C)C[C@H](C)/C=C/C=C(C)/C=C/1C" . Does its viability at 72 h, 6.25 uM lie strictly below 70%?
Output: NO

Input: Consider COC1CC2CCC(C)C(O)(O2)C(=O)C(=O)N2CCCCC2C(=O)OC(C(C)CC2CCC(O)C(OC)C2)CCC(C)C=C(C)C(O)C(OC)C(=O)C(C)CC(C)C=CC=CC=C1C (stereo not drawn) . Does its viability at 72 h, 6.25 uM lie strictly below 70%?
Output: YES

Input: Consider CO[C@H]1C[C@@H]2CC[C@@H](C)[C@@](O)(O2)C(=O)C(=O)N2CCCC[C@H]2C(=O)O[C@H]([C@H](C)C[C@@H]2CC[C@@H](O)[C@H](OC)C2)CC(=O)[C@H](C)/C=C(\C)[C@@H](O)[C@@H](OC)C(=O)[C@H](C)C[C@H](C)/C=C/C=C/C=C/1C [Compound 1, rapamycin, reference compound] . Does its viability at 72 h, 6.25 uM lie strictly below 70%?
Output: NO

----------
viability at 72 h, 12.5 uM overview
# Measurement notes: Cytotoxicity assay (CellTiter-Glo, 72 h), SKOV-3
# Assay type: cell-based, human
# Measurement context: human, SKOV-3 cells (ovarian adenocarcinoma), conc 12.5 uM; raw replicate data; read-out: SKOV3 viability (%)
Quick reminder: number only, in %, skip the unit.

Here is how some compounds turned out for viability at 72 h, 12.5 uM.
{"Compound": "COC1CC2CCC(C)C(O)(O2)C(=O)C(=O)N2CCCCC2C(=O)OC(C(C)CC2CCC(O)C(OC)C2)CC(O)CC(=O)C(C)C=C(C)C(O)CC(=O)C(C)CC(C)C=CC=CC=C1C (stereo not drawn)", "Unit info": "%", "viability at 72 h, 12.5 uM": 74}
{"Compound": "CO[C@H]1C[C@@H]2CC[C@@H](C)[C@@](O)(O2)C(=O)C(=O)N2CCCC[C@H]2C(=O)O[C@H]([C@H](C)C[C@@H]2CC[C@@H](O)[C@H](OC)C2)CC(=O)[C@H](C)/C=C(\\C)[C@@H](O)CC(=O)[C@H](C)C[C@H](C)/C=C/C=C(C)/C=C/1C", "Unit info": "%", "viability at 72 h, 12.5 uM": 91.2}
{"Compound": "CO[C@@H]1/C=C/C=C/[C@@H](C)C[C@@H](C)C(=O)C[C@H](O)/C(C)=C/[C@@H](C)C(=O)C[C@@H]([C@H](C)C[C@@H]2CC[C@@H](O)[C@H](OC)C2)OC(=O)[C@@H]2CCCCN2C(=O)C(=O)[C@]2(O)O[C@@H](CC[C@H]2C)C1", "Unit info": "%", "viability at 72 h, 12.5 uM": 60.9}
{"Compound": "CO[C@H]1C[C@@H]2CC[C@@H](C)[C@@](O)(O2)C(=O)C(=O)N2CCCC[C@H]2C(=O)O[C@H]([C@H](C)C[C@@H]2CC[C@@H](O)[C@H](OC)C2)CC(=O)[C@H](C)/C=C(\\C)[C@@H](O)[C@@H](OC)C(=O)[C@H](C)C[C@H](C)/C=C/C=C/C=C/1C [Compound 1, rapamycin, reference compound]", "Unit info": "%", "viability at 72 h, 12.5 uM": 57.5}
{"Compound": "COC1CC2CCC(C)C(O)(O2)C(=O)C(=O)N2CCCCC2C(=O)OC(C(C)CC2CCC(O)C(OC)C2)CC(=O)C(C)C=C(C)C(O)CC(=O)C(C)C=C(C)C=CC=CC=C1C (stereo not drawn)", "Unit info": "%", "viability at 72 h, 12.5 uM": 81.9}
{"Compound": "COC1CC2CCC(C)C(O)(O2)C(=O)C(=O)N2CCCCC2C(=O)OC(C(C)CC2CCC(O)C(OC)C2)CCC(C)C=C(C)C(O)C(OC)C(=O)C(C)CC(C)C=CC=CC=C1C (stereo not drawn)", "Unit info": "%", "viability at 72 h, 12.5 uM": 51.2}

Input: Sample CO[C@@H]1C[C@H](C[C@@H](C)[C@@H]2CC(=O)[C@H](C)/C=C(\C)[C@@H](O)[C@@H](OC)C(=O)[C@H](C)C[C@H](C)/C=C/C=C/C=C(\C)[C@H](O)C[C@@H]3CC[C@@H](C)[C@@](O)(O3)C(=O)C(=O)N3CCCC[C@H]3C(=O)O2)CC[C@H]1O [Compound 17, (16R)-16-O-demethyl rapamycin] — what was its viability at 72 h, 12.5 uM?
Output: 65

Input: Sample COC1CC2CCC(C)C(O)(O2)C(=O)C(=O)N2CCCCC2C(=O)OC(C(C)CC2CCC(O)C(OC)C2)CC(=O)C(C)C=C(C)C(O)C(OC)C(=O)C(C)CC(C)C=CCCC=C1C (stereo not drawn) — what was its viability at 72 h, 12.5 uM?
Output: 63.5

Input: Sample "CO[C@H]1C[C@@H]2CC[C@@H](C)[C@@](O)(O2)C(=O)C(=O)N2CCCC[C@H]2C(=O)O[C@H]([C@H](C)C[C@@H]2CC[C@@H](O)[C@H](OC)C2)CC(=O)[C@H](C)/C=C(\C)[C@@H](O)CC[C@H](C)/C=C/C=C/C=C/1C" — what was its viability at 72 h, 12.5 uM?
Output: 56.1
